The origin of these recorded values is the supplement of paper PMC10646978.

- Test system: RAW-Dual (murine macrophage reporter line)
- assay-notes: NF-kB reporter (SEAP) activity fold change vs agonist alone; higher = enhanced NF-kB activity
- applied-conditions: modulator concentration 10 µM; agonist: MPLA […]
# key: entry, value: NF-kB reporter

{"columns": ["molecule", "NF-kB reporter"],
 "data": [
  ["O=C(NCCCO)C(=O)Nc1ccccc1F", 1],
  ["CS(=O)(=O)N(CC(=O)NCC1CCCO1)c1ccc(Cl)c(C(F)(F)F)c1 (stereo unspecified)", 1.01],
  ["CN1CC(=O)N2[C@H](c3ccc4c(c3)OCO4)c3[nH]c4ccccc4c3C[C@@H]2C1=O", 0.976],
  ["Cc1cc(OC2CN(C(=O)Cn3nnc4ccccc43)C2)cc(=O)n1C1CC1", 1.02],
  ["COc1ccc(OC)c(S(=O)(=O)N2CCC(Oc3nc4c(C)cccc4s3)CC2)c1", 1.02],
  ["CC1CC(C)CN(S(=O)(=O)CCCOc2ccc3c(c2)OCO3)C1 (stereo unspecified)", 1.01]
]}

* * *

- Test system: RAW-Dual (murine macrophage reporter line)
- assay-notes: IRF reporter (Lucia luciferase) activity fold change vs agonist alone; higher = enhanced IRF activity
- applied-conditions: modulator concentration 10 µM; agonist: 3'3'-cGAMP 10 ug/mL
# key: entry, value: IRF reporter

{"columns": ["compound", "IRF reporter"],
 "data": [
  ["CC1=NN(c2ccc(C)cc2)C(=O)C1=Cc1c(C)nn(-c2ccc(C)cc2C)c1O", 0.986],
  ["O=C1CCc2cc(OCCCCc3nnnn3C3CCCCC3)ccc2N1", 1.01],
  ["O=C(COc1ccc(Cl)cc1)Nc1ccc(OC(F)(F)F)cc1", 0.989],
  ["CC(=NNC(=O)COc1ccc(Cl)cc1[N+](=O)[O-])c1cccc(Br)c1", 0.983],
  ["CNC(=O)C(=O)Nc1cc(Cl)ccc1C", 1.01],
  ["CCOC(=O)CC(C(=O)OCC)P(=O)(c1ccccc1)c1ccccc1 (stereo not given)", 0.993],
  ["O=C(O)/C=C/c1ccc(Cn2ccnc2)cc1", 1.02],
  ["CC1(C)Cc2c(sc3nc(SCC(N)=O)n(CCc4ccccc4)c(=O)c23)CO1", 1.02],
  ["CC(=NN1CCN(C2c3ccccc3-c3ccccc32)CC1)c1ccccc1O", 1.02],
  ["O=C(N/N=C/c1ccc([N+](=O)[O-])o1)c1ccc(O)cc1", 1.01]
]}

* * *

- Tested on: RAW-Dual (murine macrophage reporter line)
- assay-notes: NF-kB reporter (SEAP) activity fold change vs agonist alone; higher = enhanced NF-kB activity
- applied-conditions: modulator concentration 10 µM; agonist: MPLA […]
# key: entry, value: NF-kB reporter

{"columns": ["molecule", "target-entity", "NF-kB reporter"],
 "data": [
  ["Cc1cccc(N=c2scc(-c3ccc([N+](=O)[O-])cc3)n2-c2cccc(C)c2C)c1C", "RAW-Dual (murine macrophage reporter line)", 0.906],
  ["O=C(NCc1cccc(Oc2ccccn2)c1)C1c2ccccc2Oc2ccccc21", "RAW-Dual (murine macrophage reporter line)", 0.883],
  ["CSCCC(NC(C)=O)C(=O)NC1CCN(c2nc(C)nc3c2CCCC3)CC1 (stereo not drawn)", "RAW-Dual (murine macrophage reporter line)", 0.896]
]}

* * *

- Test system: RAW-Dual (murine macrophage reporter line)
- assay-notes: NF-kB reporter (SEAP) activity fold change vs agonist alone; higher = enhanced NF-kB activity
- applied-conditions: modulator concentration 10 µM; agonist: CpG ODN 1826 0.5 ug/mL
measured-parameter: NF-kB reporter

{"columns": ["molecule", "measured-parameter", "assay-result"],
 "data": [
  ["COc1ccc(C=C(NC(=O)c2ccccc2)C(=O)NCCC(=O)OCc2ccccc2)cc1", "NF-kB reporter", 0.996],
  ["CC(C)(C)CC(=O)Nc1nc2ccc(S(C)(=O)=O)cc2s1", "NF-kB reporter", 0.987],
  ["O=C(CC1Sc2ccccc2NC1=O)Nc1ccccc1Cl (stereo unspecified)", "NF-kB reporter", 1],
  ["O=C(c1ccc(S(=O)(=O)N2CCCC2)cc1)N1CC(Nc2ccncn2)C1", "NF-kB reporter", 0.978],
  ["CC=CCn1c(=O)c2c(nc3n2CC(C(C)(C)C)=NN3)n(C)c1=O", "NF-kB reporter", 1.02],
  ["O=C1SC(=Cc2ccc([N+](=O)[O-])cc2)C(=O)N1Cc1ccccc1", "NF-kB reporter", 0.98]
]}
